Assay: qHTS assay for MDR1-selective chemotherapeutics: Primary screen using the drug-selected MDR subline cells KB-V1; further: nearly all actives have a fitted effect of over 60% in size
Conditions: KB-V1 MDR cells viability, CellTiter-Glo, 72 h; series mostly up to 46.1 µM
Screen size: about 400,000 compounds; about 13,000 (3.2%) were called active. About 18% were inconclusive and are not listed. For the sample, actives were picked, then their nearest neighbours and some compounds at random.
VALUE TYPE: outcome

// worked examples, outcome included
>>> df
                                   molecule  observed
0  O=C(Nc1cccc2ccccc12)c1[nH]c(-c2ccccc2)c2c1C(=O)N(C1CC1)C2=O  inactive
1  CCOc1ccc(-c2cc3nc(C4CCN(C(=O)OC(C)(C)C)CC4)c(C(=O)Nc4cccc(CC)c4)cn3n2)cc1  inactive
2  CCOc1ccc(S(=O)(=O)NCCC(=O)NNC(=O)c2ccc(F)cc2)cc1  inactive
3  Cc1nc2c(OCC(=O)C(C)(C)C)cccn2c1N(C)Cc1cccs1  inactive

Exercise: Which measured outcome value corresponds to Cc1ccc(-c2nc3cccc(C)n3c2Nc2ccc3c(c2)OCCO3)cc1 ?
Key: inactive
